Hello, the source for this data is ChEMBL document CHEMBL4513216, in case you need it.

- ASSAY TEXT: Toxicity liver stage against HepG2, at 10uM
- Assay type: cell-based
- Set-up: test concentration 10 uM, cell line HepG2-A16-CD81EGFP
- CONDITION DETAILS: human, HepG2-A16-CD81EGFP cells; read-out: INHIBITION
OBSERVABLE: cytotoxicity at 10 µM (%)
I only need the number, in %, no unit after it.

Entry c1sc(C2CCCC2)nc1CN1CCn2c(nnc2C2CC2)C1 : reported cytotoxicity at 10 µM = ?
-1.62

Entry CC(=O)NCC(=O)N(CCc1ccccc1)C1CCOC1 (configuration not stated) : reported cytotoxicity at 10 µM = ?
3.02

Entry O=C1NCCCCC1Sc1nnc(C2CC2)n1C1CC1 (configuration not stated) : reported cytotoxicity at 10 µM = ?
-6

Entry Cc1cnn(CC2CCCN2CC(=O)NC2CCOCC2)c1 (configuration not stated) : reported cytotoxicity at 10 µM = ?
-16

Entry CCCC1CCCN(C(=O)Nc2ccc(F)c(C(N)=O)c2)CC1 (configuration not stated) : reported cytotoxicity at 10 µM = ?
-2.27

Entry CN1CC(C(=O)NCc2cccnc2OCc2ccccc2)CC1=O (configuration not stated) : reported cytotoxicity at 10 µM = ?
4.44

Entry CCCC(=O)Nc1cc2c(cc1OC)NC(=O)CC2c1ccc(CC)o1 (configuration not stated) : reported cytotoxicity at 10 µM = ?
2.01

* * *

- ASSAY TEXT: Toxicity liver stage against HepG2, at 10uM
- Type: cell-based
- Parameters: test concentration 10 uM, cell line HepG2-A16-CD81EGFP
- CONDITION DETAILS: human, HepG2-A16-CD81EGFP cells; read-out: INHIBITION
Field: cytotoxicity at 10 µM. Provide a value for each of the molecules that follow.
I only need the number, in %, no unit after it.

Entry CC1=C[C@@H](CN2CCC(O)CC2)[C@H](C(C)C)C[C@H]1Cc1nnc(C)o1 : reported cytotoxicity at 10 µM = ?
0.788

Entry Cc1nc(N2CCOCC2)nc(C)c1NC(=O)Cc1ccc(Cl)cc1 : reported cytotoxicity at 10 µM = ?
-4

Entry CN(Cc1ccc(F)cc1)CC1(O)CCN(C(=O)c2ccccn2)C1 (stereo not drawn) : reported cytotoxicity at 10 µM = ?
-3

Entry CC(C)O[C@H]1CN(C(=O)CCN2CCCCO2)C[C@@H]1O : reported cytotoxicity at 10 µM = ?
-7.12

Entry O=c1[nH]cnc2c1CCN(S(=O)(=O)c1ccc(OC(F)(F)F)cc1)C2 : reported cytotoxicity at 10 µM = ?
1.61

Entry CCC(CO)NC(=O)Nc1cc(F)ccc1SCC(F)F (stereo not drawn) : reported cytotoxicity at 10 µM = ?
12.6

Entry Cc1cc(CN2CCN(C(=O)C(C(C)C)n3cncn3)CC2)on1 (stereo not drawn) : reported cytotoxicity at 10 µM = ?
2.35

Entry O=C1CCC(C(=O)NCCOc2ccccc2-c2ccccc2)CN1 (stereo not drawn) : reported cytotoxicity at 10 µM = ?
5.47

Entry O=C(O)Cn1nc(-c2ccccc2F)ccc1=O : reported cytotoxicity at 10 µM = ?
2.87

Entry CC(Cn1ccnc1)NC(=O)NCCc1ccccn1 (stereo not drawn) : reported cytotoxicity at 10 µM = ?
-6.05

Entry COCCN1CCC2(CCCN(C(=O)c3ccoc3C)C2)C1=O (stereo not drawn) : reported cytotoxicity at 10 µM = ?
0.369

Entry Cc1cc(C(F)(F)F)nc(C2CCN(C(=O)CO)CC2)n1 : reported cytotoxicity at 10 µM = ?
-2.14

Entry Cc1nc(C)n(CC2CCCN(CC(=O)Nc3cc(C)on3)C2)n1 (stereo not drawn) : reported cytotoxicity at 10 µM = ?
-3.1

Entry Cn1c(CN2CCOCC2)cc(=O)c(O)c1CN1CCCCC1 : reported cytotoxicity at 10 µM = ?
-3.15

Entry Cc1nn(S(=O)(=O)c2ccc(Cl)cc2)c(C)c1C : reported cytotoxicity at 10 µM = ?
15.1

Entry COCCn1c(=O)n(C)c(=O)c2ccc(C3CCN(C(C)=O)CC3)nc21 : reported cytotoxicity at 10 µM = ?
4.89

Entry CSCCC(=O)N1CCCC1c1nnc2n1CCCCC2 (stereo not drawn) : reported cytotoxicity at 10 µM = ?
-5.79

Entry O=C(Cc1ccon1)NC1CCCN(c2ccccc2F)C1=O (stereo not drawn) : reported cytotoxicity at 10 µM = ?
-2.03

Entry Nc1nccnc1C1CN(Cc2ccc(OCC(=O)O)cc2)CCO1 (stereo not drawn) : reported cytotoxicity at 10 µM = ?
-2.11

Entry Cc1noc(CN2CCN(CC(C)O)CC2)n1 (stereo not drawn) : reported cytotoxicity at 10 µM = ?
-10

Entry CC(=O)c1ccc(-c2cnn(CC(=O)Nc3ccnn3C)c2)nc1 : reported cytotoxicity at 10 µM = ?
1.99

Entry CC(C)c1cc(CN(C)C(=O)CN2CCNC2=O)no1 : reported cytotoxicity at 10 µM = ?
-6.1

Entry Cc1ccc2[nH]c(-c3cn(C4CCNCC4)nn3)nc2c1C : reported cytotoxicity at 10 µM = ?
-4.92

Entry Cc1ccccc1N1CCN(C(=O)c2cnc(N(C)C)nc2C)C(C)C1 (stereo not drawn) : reported cytotoxicity at 10 µM = ?
15.3

Entry CC(=O)N1CCC(c2cc(C(F)(F)F)n3ccnc3n2)CC1 : reported cytotoxicity at 10 µM = ?
1.56

Entry c1ccc(Cc2nc(C3CC3)nn2-c2ccc3c(c2)OCCO3)nc1 : reported cytotoxicity at 10 µM = ?
2.6

Entry CCC(CC)C(=O)N1CCN(C)c2ncccc2C1 : reported cytotoxicity at 10 µM = ?
-3

Entry CC(c1ccco1)N(C)C(=O)NCCOc1ccc(C#N)cc1 (stereo not drawn) : reported cytotoxicity at 10 µM = ?
-2.98

Entry CN(C)c1nccnc1C1CCN(C(=O)C2(C)CCCCN2C)CC1 (stereo not drawn) : reported cytotoxicity at 10 µM = ?
10

Entry Cc1cc(Cl)ccc1-n1ncc(C(=O)N(C)CCc2ccccn2)c1N : reported cytotoxicity at 10 µM = ?
-7.3

Entry Cc1ccc(-c2ccc(CC3NCCN(C)C3=O)cc2)cc1 (stereo not drawn) : reported cytotoxicity at 10 µM = ?
-25

Entry Cc1nccn1CCC1CCCCN1Cc1cnc(N(C)C)nc1 (stereo not drawn) : reported cytotoxicity at 10 µM = ?
1.45

Entry CCc1ncc(C(=O)N2CCCC(c3nccn3CCOC)C2)cn1 (stereo not drawn) : reported cytotoxicity at 10 µM = ?
-0.262

Entry CN(C)CCCNCCC(c1ccccc1)C1CCOC(C)(C)C1 (stereo not drawn) : reported cytotoxicity at 10 µM = ?
-7.91

Entry CNC(=O)CN1CCO[C@H]2CN(CC3CCOC3)C[C@H]21 (stereo partly drawn) : reported cytotoxicity at 10 µM = ?
7.64

Entry CCOc1cc(C)nc(N2CCN(C(=O)c3cnc[nH]3)CC2)n1 : reported cytotoxicity at 10 µM = ?
-11.8

Entry c1coc(CN2CC[C@@H]3O[C@@H](COCc4ccncc4)CC[C@@H]32)c1 : reported cytotoxicity at 10 µM = ?
-155

Entry O=C(N1CCCC(n2cncn2)C1)C1(c2cccc(F)c2)CC1 (stereo not drawn) : reported cytotoxicity at 10 µM = ?
-2.91

* * *

Field: cytotoxicity at 10 µM. Provide a value for each of the molecules that follow.
- ASSAY TEXT: Toxicity liver stage against HepG2, at 10uM
- Type: cell-based
- Parameters: test concentration 10 uM, cell line HepG2-A16-CD81EGFP
- CONDITION DETAILS: human, HepG2-A16-CD81EGFP cells; read-out: INHIBITION
I only need the number, in %, no unit after it.

Entry c1ccc(N2CC[C@H](OCC3CC3)[C@@H]2Cc2cccnc2)nc1 : reported cytotoxicity at 10 µM = ?
7.53

Entry N#Cc1ccc(CNC(=O)NC2CCN(c3ncccn3)CC2)cc1 : reported cytotoxicity at 10 µM = ?
11.3

Entry COCCN1C[C@@H]2[C@@H](OC)CCN(C(=O)Cc3ccsc3)[C@@H]2C1 : reported cytotoxicity at 10 µM = ?
7.68

Entry O=S(=O)(C1CC1)N1CCC2(COCc3cnc(N4CCOCC4)nc32)C1 (stereo unspecified) : reported cytotoxicity at 10 µM = ?
-5.44

Entry Cc1noc(C)c1CN1C[C@H](C)[C@]2(CCN(Cc3cccnc3)C2=O)C1 : reported cytotoxicity at 10 µM = ?
4.59

Entry Cc1ccc(CNC(=O)CN2CCN(CC(O)c3ccco3)CC2)cc1 (stereo unspecified) : reported cytotoxicity at 10 µM = ?
2.71

Entry c1cncc(COCc2nnn3c2CN(Cc2ccsc2)CC3)c1 : reported cytotoxicity at 10 µM = ?
6.4

Entry O=C(N1CCCC(n2cncn2)C1)C1(c2ccccc2F)CCCC1 (stereo unspecified) : reported cytotoxicity at 10 µM = ?
-4.24

Entry CC(C)Oc1cccc(C(=O)Nc2nncs2)c1 : reported cytotoxicity at 10 µM = ?
-3.49

Entry CCN(Cc1cccc(NC(=O)COC)c1)C(C)=O : reported cytotoxicity at 10 µM = ?
-125

Entry CC(CC(=O)c1ccco1)NC(=O)c1ccccn1 (stereo unspecified) : reported cytotoxicity at 10 µM = ?
-5.14

Entry COc1ccc(CNC(=O)c2ccc(Br)cn2)cc1 : reported cytotoxicity at 10 µM = ?
-18

Entry O=C1CC(N(C(=O)CCc2c[nH]c3ccccc23)C2CC2)C(=O)N1 (stereo unspecified) : reported cytotoxicity at 10 µM = ?
0.247

Entry CC(Cn1cccn1)NCC(=O)NCCc1cccs1 (stereo unspecified) : reported cytotoxicity at 10 µM = ?
-12.7

Entry O=C(c1ccco1)N1C[C@H]2CN(Cc3cccc(F)c3)C(=O)[C@H]2C1 : reported cytotoxicity at 10 µM = ?
-78.2

Entry CCOc1ncccc1C(=O)NC1CC(=O)N(CC(F)(F)F)C1 (stereo unspecified) : reported cytotoxicity at 10 µM = ?
4.43

Entry COc1ccc(CN(C)CC(=O)c2ccc3[nH]c(=O)[nH]c3c2)cc1F : reported cytotoxicity at 10 µM = ?
8.51

Entry CNc1ncccc1CN1CCN(C)CC(C(=O)N(C)C)C1 (stereo unspecified) : reported cytotoxicity at 10 µM = ?
16.1

Entry Cc1csc(C(Cc2ccsc2)NC(=O)Cn2cccnc2=O)n1 (stereo unspecified) : reported cytotoxicity at 10 µM = ?
-22.2

Entry CCN(CC)C(=O)[C@@H]1C[C@H](n2cc(-c3cccc(OC)c3)nn2)CN1 : reported cytotoxicity at 10 µM = ?
12.4

Entry O=C(Cn1cc(C2CC2)nn1)N(Cc1cccs1)CC1CCCO1 (stereo unspecified) : reported cytotoxicity at 10 µM = ?
-4.58

Entry O=C(NCCNC(=O)c1ccc(Cl)cc1)NCCn1cccc1 : reported cytotoxicity at 10 µM = ?
5.95

Entry Cc1cc(-c2ccccc2)nc(C2CCCN2S(C)(=O)=O)n1 (stereo unspecified) : reported cytotoxicity at 10 µM = ?
3.5

Entry O=C(O)C(c1ccc2c(c1)OCCO2)N1CCC(N2CCOCC2)CC1 (stereo unspecified) : reported cytotoxicity at 10 µM = ?
-0.809

Entry NC(=O)c1c(SCCN2CCCCC2)sc2c(O)cc(=O)[nH]c12 : reported cytotoxicity at 10 µM = ?
-13.7

Entry CCC(O)CN(Cc1cccc(C(=O)N(C)C)c1)c1ccccc1 (stereo unspecified) : reported cytotoxicity at 10 µM = ?
0.503

Entry CCOC(=O)c1cnn(-c2cc(Oc3ccccc3)ncn2)c1N : reported cytotoxicity at 10 µM = ?
2.93

Entry CCSc1ccc(NC(=O)NC(C)c2ccncc2)cn1 (stereo unspecified) : reported cytotoxicity at 10 µM = ?
-5.14

Entry COCC(NC(=O)c1ccc(O)nc1)c1ccc(C)o1 (stereo unspecified) : reported cytotoxicity at 10 µM = ?
4.96

Entry CCc1nc(C2CCCN2C(=O)CCCn2cccn2)no1 (stereo unspecified) : reported cytotoxicity at 10 µM = ?
-13.1

Entry CC(CNCc1ccc(Br)cc1)Oc1ccccn1 (stereo unspecified) : reported cytotoxicity at 10 µM = ?
5.36

Entry COc1cccc(S(=O)(=O)CCN2CCn3c(C)nnc3C2)c1 : reported cytotoxicity at 10 µM = ?
-18.7

Entry COc1cc(NCC(c2ccccn2)N2CCOCC2)ncn1 (stereo unspecified) : reported cytotoxicity at 10 µM = ?
-49.1

Entry CS(=O)(=O)NCc1n[nH]c2c1CCN(C(=O)c1ccsc1)C2 : reported cytotoxicity at 10 µM = ?
4.01

Entry Cn1nnnc1SCCNC(=O)c1c[nH]nc1C1CCCCC1 : reported cytotoxicity at 10 µM = ?
-0.863

Entry CSCC(=O)N1CCCC(CO)(CC2CC2)C1 (stereo unspecified) : reported cytotoxicity at 10 µM = ?
4.38

Entry Cc1ccc(CNC2(Cc3cc(-c4ccc(F)cc4)on3)COC2)o1 : reported cytotoxicity at 10 µM = ?
8.13

Entry CCn1c(NCc2ccc(OC)cc2)nc2c(C)nn(C)c2c1=O : reported cytotoxicity at 10 µM = ?
4.23

Entry O=C1C(Sc2nnnn2C2CC2)CCN1c1ccccc1F (stereo unspecified) : reported cytotoxicity at 10 µM = ?
4.05

Entry Cc1cc(C)c2cc(C(=O)N3CCNC(=O)C3)[nH]c2c1 : reported cytotoxicity at 10 µM = ?
-13.1

Entry COc1cc(CNC(=O)c2cc(Cl)ccc2F)ccn1 : reported cytotoxicity at 10 µM = ?
-2.69
